System: IGROV-1
procedureDetails: NCI tumour cell line growth inhibition, 48 h
Activity calls are given as the source filed them. Rule as the data show it: active = GI50 up to about 1.1 µM and inactive = higher.
Hello, when you answer, please use one of the following outcomes: class 1 (active), class 0 (inactive)

Task: Given CCOC(=O)c1c(C)n(-c2ccc(C)cc2)c2c1cc(O)c1[nH]c3c(c12)CCCC3 , state the outcome it received in this test.
Result: class 0

Task: Next record, please: COc1cc2c(c(OC)c1OC)-c1ccc(SC)cc1C(O)CC2 (stereo not given)
Result: class 1

Task: Same question, FC(F)(F)c1nc2cc(SSc3cc4nc(C(F)(F)F)[nH]c4cc3Cl)c(Cl)cc2[nH]1 this time
Result: class 0

Task: What about Oc1cc(-c2ccc(Cl)cc2)cn2c1nc1ccccc12 ?
Result: class 0

Task: Can you check CCCSc1ccc2[nH]c(N3C(=O)/C(=C/c4ccco4)N=C3c3ccccc3)cc2c1 next?
Result: class 0

---

System: BT-549
procedureDetails: NCI tumour cell line growth inhibition, 48 h
Calls of active or inactive are those of the source. No stated cut-off is given here; in the data, active = GI50 up to about 1.1 µM and inactive = higher.
Permitted responses: 1 (yes) for active, 0 (no) for inactive

Task: Hi, sorry to bother you, what did the test record for OCc1cn(Cc2ccccc2)c2ccccc12 ?
Result: 0 (no)

Task: Request: CCOC(=O)CCSS(=O)(=O)c1ccccc1
Result: 0 (no)

Task: Input CC1=NNC(=O)C1C1CC(c2c[nH]c3ccccc23)=NNC1=O (stereo unspecified)
Result: 0 (no)

Task: Field entry: CCN(CC)C(=O)N1CN(c2ccccc2)C2(CCN(CCCC3(c4ccc(F)cc4)OCCO3)CC2)C1=O
Result: 0 (no)

Task: What about this molecule? O=S(=O)(O)c1ccc2c(/N=N/c3ccc(S(=O)(=O)O)c4ccccc34)c(O)c(S(=O)(=O)O)cc2c1
Result: 0 (no)

Task: Please answer likewise for COc1cc2c3cc1Oc1c(OC)c(OC)cc4c1C(Cc1ccc(cc1)Oc1cc(ccc1O)CC3N(C)CC2)N(C)CC4 (stereo unspecified)
Result: 0 (no)

Task: Likewise for O=C(CSCC(=O)N/N=C\c1ccc(-c2ccccc2)cc1)N/N=C\c1ccc(-c2ccccc2)cc1 ?
Result: 0 (no)

Task: // same read-out, input: COc1cc(S(=O)(=O)Nc2ccc(-c3csc(N4C(=O)CSC4c4cccc(Oc5ccccc5)c4)n3)cc2)ccc1Cl (stereo unspecified)
Result: 0 (no)

Task: Can you check O=S(=O)(Nc1ccccc1S(=O)(=O)c1ccccc1)c1ccccc1 next?
Result: 0 (no)

Task: Would you kindly repeat that for CCCC(=O)OC[n+]1ccc(-c2c(COC(=O)NC(C)C)c(COC(=O)NC(C)C)c3n2CCC3)cc1 ?
Result: 0 (no)

Task: Next entry: N#Cc1nc(-c2ccco2)oc1N
Result: 0 (no)

Task: What about this molecule? COc1ccc(C2=Nn3c(nc4sc(-c5ccccc5)cc4c3=O)SC2)cc1
Result: 0 (no)

Task: Queued: O=c1[nH]c(N/N=C\C(=N/Nc2nc3ccccc3c(=O)[nH]2)C(O)C(O)C(O)CO)nc2ccccc12 (stereo unspecified)
Result: 0 (no)

Task: NNc1nc2ccccc2s1 ?
Result: 0 (no)

Task: Moving on to O=C1Nc2ccc(Br)cc2/C1=N/S(=O)(=O)O
Result: 0 (no)

Task: Repeat for the following molecule: CCCCc1ccc(-n2sc3ncc([N+](=O)[O-])cc3c2=O)cc1
Result: 0 (no)

Task: Okay, and CSc1c(C(N)=S)c(N)nn1-c1ccccc1 ?
Result: 0 (no)

Task: Please answer likewise for O=C1N/N=C\c2ccc(cc2)OCc2cccc(n2)COc2ccc(cc2)/C=N\NC1=O
Result: 0 (no)

Task: // query: Oc1ccc2c(c1)-c1c(c3ccccc3n1CCN1CCOCC1)CC2
Result: 0 (no)

Task: Please answer likewise for O=C(CSc1n[nH]c(=O)[nH]c1=O)NNC(=O)c1cccc2nc3ccccc3nc12
Result: 0 (no)

Task: Next entry: O=S1(=O)c2ccccc2NC(=S)N1c1ccccc1
Result: 0 (no)

Task: Now the molecule CCc1cc(=O)n(/C(C)=C/c2ccccc2)n1C
Result: 0 (no)

Task: What about this molecule? C#CCn1ncc2c(SCc3ccccc3)ncnc21
Result: 0 (no)

Task: // same read-out, input: CCC1CCN=C(Cn2cc(C)c(=O)[nH]c2=O)N1 (stereo unspecified)
Result: 0 (no)

Task: Check O=C(O)c1cc(N(Cc2ccccc2O)Cc2cc(O)ccc2O)ccc1O too.
Result: 0 (no)

Task: Please do the same for Cc1cn([C@H]2C[C@@H]3[C@@H](COC(CCl)N3O)O2)c(=O)[nH]c1=O (stereo partly specified) as well.
Result: 0 (no)

Task: # iterate: CS(=O)(=O)c1nc(Cl)c(Cl)c(C#N)c1Cl
Result: 0 (no)

Task: And what about the molecule CSCCCNC(=O)[C@H](CSC)NC(=O)c1csc(CCNC(=O)[C@@H](NSc2ccccc2[N+](=O)[O-])C(C)O)n1 (stereo partly specified) ?
Result: 0 (no)

Task: Quick one: NNC(=O)c1c(-c2cccnc2)cnc2ccccc12
Result: 0 (no)

Task: Queued: c1ccc2c(-c3cnc(-c4c[nH]c5ccccc45)cn3)c[nH]c2c1
Result: 0 (no)

Task: Please do the same for Cc1ccc(C(=O)Nc2ccc(CP(=O)(O)O)cc2)cc1NC(=O)c1cccc(N)c1 as well.
Result: 0 (no)

Task: Next record, please: O/N=N/c1ccccn1.OCC1OC2OC3C(CO)OC(OC4C(CO)OC(OC5C(CO)OC(OC6C(CO)OC(OC7C(CO)OC(OC1C(O)C2O)C(O)C7O)C(O)C6O)C(O)C5O)C(O)C4O)C(O)C3O (stereo unspecified)
Result: 0 (no)

Task: Again, but for COc1ccc(C2C(C(=O)c3ccccc3)=C(O)C(O)(CC(=O)c3ccccc3)N2c2ccc(OC)cc2)cc1 (stereo unspecified)
Result: 0 (no)

Task: Same again, this time with CC(=O)O[C@@H]1C[C@@]2(C)[C@@H]3CC=C4[C@@H](C[C@H](O)C(=O)C4(C)C)[C@]3(C)C(=O)C[C@]2(C)[C@H]1[C@@](C)(O)C(=O)/C=C/C(C)(C)OC(C)=O
Result: 1 (yes)

Task: Record: CC(=O)Nc1ccc(/C=C/[N+](=O)[O-])cc1
Result: 0 (no)

Task: Same question, O=C(O)C1CCCN1Cc1ccc2c(c1)OCO2 (stereo unspecified) this time
Result: 0 (no)

Task: And Cc1cc(Oc2cnc(=O)[nH]c2)cs1 ?
Result: 0 (no)

Task: Query N#C/N=C1/c2ccccc2/C(=N/C#N)c2cc(CO)ccc21 next
Result: 0 (no)

Task: Further, for CCCCCCC(O)C(O)CCC(O)C1CCC(CCCCC(O)CC2=CC(C)OC2=O)O1 (stereo unspecified) ?
Result: 0 (no)

Task: Record: CCN(CC)C(=O)Cn1c(-c2ccccc2)cc2ccccc21
Result: 0 (no)

Task: Same read-out for Nc1nc(Br)nc2ncn(C3CC(O)C(CO)O3)c12 (stereo unspecified) ?
Result: 0 (no)

---

Test system: HL-60
procedureDetails: NCI tumour cell line growth inhibition, 48 h
Calls of active or inactive are those of the source. Cut-off read from the data, not from the text of the source: active = GI50 up to about 1.1 µM and inactive = higher.
quantityName: GI50

Task: Sample N#Cc1nc(-c2ccco2)oc1N — what was its GI50?
Result: > 10 µM (inactive)

Task: // repeat for CC(=O)Nc1ccc(/C=C/[N+](=O)[O-])cc1 and report
Result: 2.84 µM (inactive)

Task: Entry to check: [O-][S+](Cc1ccccc1)c1nc2ccccc2nc1-c1cccs1 (configuration not stated)
Result: 3.49 µM (inactive)

Task: Check CCCCSC(=CC(=O)c1cccc(C(=O)C=C(SCCCC)SCCCC)n1)SCCCC too.
Result: > 100 µM (inactive)

Task: Cool, now COc1cc(OC)nc(NC(=O)NS(=O)(=O)c2cccc3ncn(C)c(=O)c23)n1
Result: > 100 µM (inactive)

Task: Another molecule: CC1=NNC(=O)C1C1CC(c2c[nH]c3ccccc23)=NNC1=O (configuration not stated)
Result: > 100 µM (inactive)

Task: Would you mind doing CN1C(=O)c2ccccc2NC(=O)C12O[C@@H]2c1ccccc1 (some centres not stated) as well?
Result: > 100 µM (inactive)

Task: Queued: CN(C)CCNC(=O)c1cccc2nc3c(nc12)-c1ccccc1C3=O
Result: 6.3 µM (inactive)

Task: Next record, please: Cc1ccc(Nc2n[nH]c(=S)s2)cc1
Result: > 100 µM (inactive)

Task: Same for C=C1C(=O)OC2C[C@H](C)C3CC(=O)C(C)=C3CC12 (some centres not stated)
Result: 2.33 µM (inactive)

Task: Follow-up entry: COc1ccc2c(c1)c(Cc1c(C)n(C)c3ccc(OC)cc13)c(C)n2C
Result: > 100 µM (inactive)

Task: Field entry: CCCCCCCCCCCC1NC(N)=NC(CCCO)=C1C(=O)OC (configuration not stated)
Result: 1.42 µM (inactive)

Task: CC(C)CCCC(C)[C@H]1CCC2[C@@H]3CCC4Cc5nc6c(nc5C[C@]4(C)C3CC[C@@]21C)CC1CC[C@@H]2C(CC[C@@]3(C)C2CC[C@@H]3C(C)CCCC(C)C)[C@@]1(C)C6 (some centres not stated) ?
Result: > 100 µM (inactive)

Task: What would you report for COc1ccc2oc(=N)c(C(=O)Nc3cccc4ccccc34)cc2c1 ?
Result: 23.7 µM (inactive)

Task: Do the same for N#C/N=C1/c2ccccc2/C(=N/C#N)c2cc(CO)ccc21 please
Result: 21.6 µM (inactive)

Task: Next record, please: CC12N=NNC1C(=O)NC2=O (configuration not stated)
Result: > 100 µM (inactive)

Task: // next record Cc1[nH]n(-c2nc3c(c(=O)[nH]2)CCCC3)c(=O)c1CCO
Result: > 100 µM (inactive)

Task: Moving on to the next molecule: COc1cc(/C=C2/SC(c3ccccc3)N(c3ccccc3)C2=O)cc(OC)c1OC (configuration not stated)
Result: 35.6 µM (inactive)

Task: Continue with CCOC(=O)c1c(CN2CCOCC2)n(Cc2ccccc2)c2c1cc(O)c1nc(C)c(C)nc12
Result: > 100 µM (inactive)

Task: Also Cc1cccc(/C=N/N=C(\N)NO)n1 ?
Result: 32.4 µM (inactive)

Task: Also check CN1CCN([C@H]2C[C@H]3[C@@H]4CC=C5C[C@@H](O)CC[C@]5(C)[C@H]4CC[C@]3(C)C2=O)CC1
Result: 31.8 µM (inactive)

Task: What about this molecule? C=CCNC(=S)NC=C(C(N)=O)C(N)=O
Result: > 100 µM (inactive)
